Values compiled from ChEMBL document CHEMBL1201862.

CC50 by entry:
experiment: HEp-2 cell cytotoxicity, dose response, cytotoxicity control for RSV inhibitor project, HTS (AID 2410); assay type: functional; details: human respiratory syncytial virus
The source made the active and inactive calls.

So, Cc1c(C(=O)NNC(=O)Nc2ccc([N+](=O)[O-])cc2)oc2ccccc12 ? Its CC50 was > 50 µM (active)

----------
AC50 by entry:
molecular target: Cytochrome P450 2C19 (Homo sapiens, UniProt P33261); assay: Cytochrome panel assay with activity outcomes. Panel member name: p450-cyp2c19 Compounds with AC50 equal or less than 10 uM are considered active; type: functional; details: read-out: AC50

Here's what some known entries look like.
CC(=O)NC(C)C(c1cccs1)N1CCN(c2ccccc2)CC1 (stereo unspecified) :: 3.98 µM (inconclusive)
Cc1cccc(CS(=O)(=O)Cc2ccc(C(=O)NCc3ccco3)o2)c1 :: 3.55 µM (inconclusive)
Cc1nnc(S)n1/N=C/c1ccccc1OCc1ccc(Cl)cc1 :: 11.2 µM (inconclusive)
NCCNC(=S)S :: 3.98 µM (inconclusive)
CC(C)(CS)C(=O)N1CCC[C@H]1C(=O)O :: 15.8 µM (inconclusive)
COC(=O)c1ccc(NC(C)=O)o1 :: 39.8 µM (inconclusive)
Cc1c(/N=C/c2ccco2)n(Cc2ccccc2)c2ccccc12 :: 2.82 µM (inconclusive)
COc1ccc(Oc2ncc3nc(-c4ccc(Cl)cc4)c(=O)n(C[C@H]4CCCO4)c3n2)cc1 :: 25.1 µM (inconclusive)
COc1cnc(-c2ccccn2)nc1Sc1c(Cl)cccc1Cl :: 8.91 µM (inconclusive)
CN1C(=O)C(CC(=O)Nc2ccc(F)cc2)N(CCCc2ccccc2)C1=S (stereo unspecified) :: 1.78 µM (inconclusive)

Let's switch to this compound now.
So, O=C(NCc1nc2ccccc2[nH]1)[C@H]1C[C@@H]1[C@H](NP(=O)(c1ccccc1)c1ccccc1)c1ccccc1 ? Its AC50 was 39.8 µM (inconclusive)

----------
biological target: Alkaline phosphatase, tissue-nonspecific isozyme (Homo sapiens); assay: human TNAP enzyme inhibitors, SAR follow-up, biochemical, luminescent, dose response (AID 1056)
Active and inactive are the calls of the source.
Assign a class; possible classes are active, inactive

Previously resolved entries follow.
NNC(=O)c1cc(-c2ccc(F)cc2F)[nH]n1 :: active
CCOC(=O)c1cc(-c2cccc(C(F)(F)F)c2)n[nH]1 :: inactive
COc1ccccc1NS(=O)(=O)c1ccc(OC)c2ncccc12 :: inactive
O=C1C2CCCCC2C(=O)N1c1nc(CCc2ccccc2)n[nH]1 (stereo unspecified) :: inactive
CCOc1cc(C)ccc1S(=O)(=O)Nc1cccnc1 :: inactive

Lab note: next compound to report on.
Challenge: Outcome? O=C(O)c1ccc(N2C(=O)c3ccccc3C2=O)cc1
Response given: inactive

----------
IC50 by entry:
target: DNA dC->dU-editing enzyme APOBEC-3G (Homo sapiens); assay: Dose Response confirmation of small molecule APOBEC3G DNA Deaminase Inhibitors via a fluorescence-based single-stranded DNA deaminase assay. [Related pubchem assays (depositor defined):AID493012, AID493028]; type: functional
Calls of active or inactive are those of the source.

Here's what some known entries look like.
Sc1nc(-c2ccccc2)cn1/N=C/c1ccncc1 :: 2.93 µM (active)
CCC(=O)NC1=C(Cl)C(=O)C(NC(=O)CC)=C(Cl)C1=O :: 2.67 µM (active)
Cc1cc(C)c(C#N)c(=N)o1 :: 37.4 µM (active)
C=CCn1c(S)nnc1-c1sc2nc(C)cc(C)c2c1N :: 3.28 µM (active)
COc1ccc(-c2nc3ccccc3c(=O)n2NC(=S)N(C)C)cc1 :: 35.1 µM (active)

So, CCCCn1c(S)nnc1-c1ccc([N+](=O)[O-])cc1 ? Its IC50 was 3.5 µM (active)

So, CCOC(=O)C1CCCN(C(=O)Cn2sc3nc(C)cc(C)c3c2=O)C1 (stereo not drawn) ? Its IC50 was 6.17 µM (active)

So, Cc1nnc(S)n1/N=C/c1ccc(Br)o1 ? Its IC50 was 6.93 µM (active)

----------
biological target: Trace amine-associated receptor 1 (Homo sapiens, UniProt Q96RJ0); test: Counterscreen for agonists of the human trace amine associated receptor 1 (hTAAR1): Fluorescence-based cell-based high throughput dose response assay to identify hTAAR1 agonist that also desensitize TAAR1 receptor response.; type: functional;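 further: inhibition of calcium response to PEA at EC80 in Galpha16 coupled cells measured by Fluo-8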
The source made the active and inactive calls.
Assign a class; possible classes are t for active, f for inactive

Previously resolved entries follow.
CN(CCc1ccccc1)Cc1c[nH]c2ccccc12 :: f
O=C(Cc1nnc(NC(=O)Nc2ccccc2)s1)Nc1ccccc1 :: t
COc1ccc(-c2cc(C3CCN(CC(O)C(F)(F)F)CC3)[nH]n2)cc1 (configuration not stated) :: t
CC1CCCN(CCC(=O)c2ccc(Br)cc2)C1 (configuration not stated) :: f
O=c1nc(N2CCCCC2)nc(Nc2ccccc2)[nH]1 :: t
Cc1ccc(N2CN(CCc3ccccc3)CN=C2S)cc1 :: t

Lab note: next compound to report on.
Challenge: Outcome? Cc1c(Cl)cccc1Nc1nc(NCCO)c2ccccc2n1
Response given: t

----------
EC50 by entry:
assay: cells
Calls of active or inactive are those of the source.

Here's what some known entries look like.
OC1CCN(Cc2ccc(OCc3ccccc3)cc2)CC1 :: 207 nM (active)
CC(=O)O[C@H]1C(=O)[C@@]2(C)C([C@H](OC(=O)c3ccccc3)[C@]3(O)C[C@H](OC(=O)[C@H](O)[C@@H](NC(=O)c4ccccc4)c4ccccc4)C(C)=C1C3(C)C)[C@]1(OC(C)=O)CO[C@@H]1C[C@H]2O (stereo not given in full) :: < 4 nM (active)
Cc1ccc2c(c1)C1CN(C)CCC1N2C(=O)c1ccc(Cl)c(S(=O)(=O)N2CCOCC2)c1 (stereo not given) :: 199 nM (active)
CCN1/C(=C/c2ccc3cc(C)ccc3[n+]2CC)Sc2cc(C)c(C)cc21 :: 46 nM (active)

Let's switch to this compound now.
So, Cc1cccc(-n2c(SCc3cc(=O)n4ccsc4n3)nc3ccccc32)c1 ? Its EC50 was 209 nM (active)

----------
IC50 by entry:
target: NS3 (Hepatitis C virus); assay: PubChem AID 2173; parameters: species or system Hepacivirus hominis
The source made the active and inactive calls.

So, COc1ccccc1NC(=O)c1cc2cc(Br)ccc2cc1O ? Its IC50 was > 4.03 µM (active)

So, Cc1ccccc1NC(=O)CSc1nnc(-c2ccco2)c(-c2ccco2)n1 ? Its IC50 was 8.62 µM (active)

So, Nc1c(C(=O)NC2CC2)sc2nc3c(c(-c4ccco4)c12)CC/C3=C/c1ccco1 ? Its IC50 was 5.48 µM (active)

So, COc1cc2cc3c(N)c(C(=O)Nc4sc(C)c(C)c4C#N)sc3nc2cc1OC ? Its IC50 was > 36.3 µM (not active)

So, CCCCOc1ccc(-c2cc(C(F)(F)F)c(C#N)c(SCC(=O)O)n2)cc1 ? Its IC50 was 1.98 µM (active)

----------
molecular target: Beta-2 adrenergic receptor (Homo sapiens, UniProt P07550); test: beta2AR agonists driving receptor internalization, dose response, cell-based, FAP fluorogen, flow cytometry, cherry pick 1 (AID 588763); assay type: functional
Calls of active or inactive are those of the source.
EC50 by entry:

O=[N+]([O-])c1ccc(-[n+]2ccc3ccccc3c2)c([N+](=O)[O-])c1 :: 10200 nM (inactive)

So, NC(=O)CC(NC(=O)c1ccc(Br)cc1)c1ccc(N2CCN(c3ccccn3)CC2)c([N+](=O)[O-])c1 (centres undefined) ? Its EC50 was 213 nM (active)

So, NC(=O)CC(NC(=O)c1cccc(Br)c1)c1ccc(N2CCN(c3ccccn3)CC2)c([N+](=O)[O-])c1 (centres undefined) ? Its EC50 was 225 nM (active)

So, CC(=O)Nc1ccc(S(=O)(=O)N(Cc2cccnc2)Cc2cc3ccccc3nc2O)cc1 ? Its EC50 was 801 nM (active)

----------
biological target: Eukaryotic translation initiation factor 4E (Mus musculus, UniProt P63073); assay: eIF4E–eIF4G protein interaction inhibitors, dose response, biochemical, TR-FRET (AID 855); assay type: functional;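 further: potency for disrupting eIF4E binding to eIF4GI seen as loss of FRET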
Activity calls are given as the source filed them.
Assign a class; possible classes are active, inactive

Previously resolved entries follow.
COc1ccc(OC)c(-c2c3cc(O)c(=O)cc-3oc3cc(O)c(O)cc23)c1 :: active
Cc1ccc(-n2c(C)cc(/C=N/Nc3ccc([N+](=O)[O-])cn3)c2C)cc1 :: inactive
CC(C)(C)c1c(Cl)c(O)c(-c2ccccc2)c(=O)n1-c1ccccc1 :: active
c1csc(-c2nn3c(Cn4cnc5ccccc54)nnc3s2)c1 :: inactive

Challenge: Outcome? COc1ccc(OC)c(NC(=O)COC(=O)c2cc3c(s2)CCC3)c1
Response given: inactive

----------
test: NIH-3T3 fibroblast cytotoxicity, dose response, cytotoxicity control, cell-based, fluorescence, Alamar Blue, secondary assay (AID 2327); type: functional;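 further: NIH-3T3 mouse fibroblasts cultured with fluconazole at 8 µg/mL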
Activity calls are given as the source filed them.
OBSERVED_PROPERTY: EC50

Here's what some known entries look like.
CCN1/C(=C/c2ccc3cc(C)ccc3[n+]2CC)Sc2cc(C)c(C)cc21 :: 9.66 µM (inconclusive)
Clc1ccc(-c2c[n+](Cc3ccc(Br)cc3)c3n2CCCCC3)cc1 :: > 150 µM (inconclusive)
O=C(CCl)N1c2ccccc2CCc2ccccc21 :: 5.37 µM (inconclusive)
CCCNC(=O)c1ccc2c(O)c(O)c(-c3cccc(Br)c3)nc2c1 :: 15.6 µM (active)
Cn1c(N2CCOCC2)c(/C=N/OC(=O)c2ccc(F)cc2)c2ccccc21 :: > 160 µM (inconclusive)
O=C(NNC(=S)Nc1ccc(Cl)c(Cl)c1)c1ccccn1 :: 42 µM (inconclusive)
CCC(=O)NC(c1ccco1)c1cc(Cl)c2cccnc2c1O (centres undefined) :: 24.9 µM (active)
FC(F)(F)COc1nc(OCC(F)(F)F)nc(N2CCN(c3ccccc3)CC2)n1 :: > 160 µM (inactive)

Let's switch to this compound now.
So, O=C(c1ccc(Cn2c(=S)[nH]c3ccccc3c2=O)cc1)N1CCN(c2ccccn2)CC1 ? Its EC50 was 12.4 µM (inconclusive)
